Assignment: determine reported %Inh for the given molecules.
Test system: SIK2
run.conditions: concentration: 1 μM, replicates: in singlicate; n = 1;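 further: KINOMEscan kinase panel screen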

# count of solved cases: 3
O=c1cc(N2CCOCC2)nc2n(Cc3ccc(F)c(Cl)c3)ccn12 : 0%
COc1cc(OC)cc(-c2cc3cnc(N)nc3nc2NC(=O)NC(C)(C)C)c1 : 0%
CN1C(=O)C(Nc2ccccc2)=C(c2ccccc2)C1=O : 7%

Hello, I would appreciate it if you could give %Inh for each entry below.
1. CN(C)c1cc(-c2ccc3c(N)n[nH]c3c2)nc(N)n1
2. O=C(NCCNc1ccnc(Nc2ccc(F)cc2)n1)Nc1ccc2c(c1)OCO2

Response:
1: 0%; 2: 0%

Here are 3 molecules. What values of %Inh were reported for them?
1. COc1cc2ncn(-c3cc(OCCCc4ccccc4)c(C(N)=O)s3)c2cc1OC
2. Nc1nccc2scc(-c3ccc4c(c3)CCN4C(=O)Cc3ccccc3)c12
3. CCS(=O)c1ccc(-c2coc3ccc(-c4nnc(C)o4)cc23)cc1 (centres unmarked)

Response:
["0%", "4%", "5%"]

* * *

Tested on: TIE1
run.conditions: concentration: 1 μM, replicates: in singlicate; n = 1
measured.quantity: %Inh
The number alone won't do; follow it with the unit.

Worked set:
Nc1nc(-c2ccccc2F)c(-c2ccnc3ccccc23)s1 [GW560459] : 0%
CCn1c(-c2nonc2N)nc2ccccc21 [SB-693162/GW549034] : 56%
CCC(=O)c1c(-c2ccccc2)c2cc(Cl)ccc2c(=O)n1Cc1cc(S(C)(=O)=O)n(CC(N)=O)n1 : 0%
Cc1ccc(-c2ccc3c(ccc4sc5c(c43)NC[C@@H](C)N=C5N(C)C)n2)cn1 : 0%
Cn1c(=O)c(F)c(Nc2ccc(I)cc2F)c2c(=O)n(OC[C@H](O)CO)cnc21 : 0%

Quick one: give me %Inh for each item below, same order please.
1. Cc1ccccc1COc1cc(-n2cnc3cc(Cl)ccc32)sc1C(N)=O [GW813349]
2. COc1cccc(C2=C(Nc3cccc(C(=O)O)c3)C(=O)NC2=O)c1 [SB-390770]
3. COc1cc(Nc2ccnc3ccc(C(F)(F)F)cc23)cc(OC)c1OC [GW577382]
4. COc1cc(Nc2nccc(N3CCC(NC(=O)C(C)c4ccc(Cl)cc4)C3)n2)cc(OC)c1OC (stereo not drawn) [GSK1379757]

Response:
["11%", "27%", "0%", "10%"]

* * *

Give measured %Inh for each item. Keep answers brief.
Tested on: PAK3
run.conditions: concentration: 1 μM, replicates: in singlicate; n = 1
Give bare numbers, in %.

Known results for compounds:
O=C1NC(=O)C(c2ccccc2)=C1Nc1cccc(O)c1 : 26
COc1ccc(-c2coc3ccc(-c4nnc(SCc5cccc(C#N)c5)o4)cc23)cc1 : 0
CC(C)(C)c1ccc(C(=O)Nc2cn3cc(-c4ccccc4)ccc3n2)cc1 : 8
O=C(Nc1n[nH]c2nc(-c3ccccc3)c(Cl)cc12)C1CC1 : 23

Give me %Inh for each of these compounds, listed below.
1. CCC(=O)c1c(-c2ccccc2)c2cc(Cl)ccc2c(=O)n1Cc1cc(C(=O)NC2CC2)n(C)n1
2. CN1C(=O)C(Nc2cc(Cl)c(O)c(Cl)c2)=C(c2ccc(Cl)cc2)C1=O
3. COc1cccc(C2=C(N(C)c3ccccc3)C(=O)NC2=O)c1
4. O=c1cc(N2CCOCC2)nc2n(Cc3ccc(F)c(Cl)c3)ccn12
5. Nc1ncnc2c1ncn2-c1cccc(F)c1
6. Cl.c1ccc(Cn2cnc3cc(Nc4ncnc5ccccc45)ccc32)cc1
7. Cc1cccc(-c2cc(-c3c[nH]nc3-c3ccccn3)ccn2)c1

Response:
1: 11; 2: 0; 3: 1; 4: 0; 5: 0; 6: 0; 7: 1

Below are some compounds; for each one, tell me its %Inh.
1. Cl.NS(=O)(=O)c1cccc(Nc2cc(-c3ccc(F)cc3)n[nH]2)c1
2. COc1cc(Nc2nccc(N3CCC(NC(=O)C4COc5ccccc5O4)C3)n2)cc(OC)c1OC (stereo not shown)
3. CCCNC(=O)Nc1ccc(Oc2ncnc3ccn(C)c23)cc1
4. Cc1cc(Nc2nc(-c3cccc(C)n3)nc3ccccc23)ccn1
5. Nc1n[nH]c2nnc(-c3ccccc3)c(-c3ccccc3)c12

Response:
0
10
0
0
0

Data provenance is paper PMC5540273.
